Provide the reported pIC50 of each item.
test-system: Recombinant human BACE-1 (Homo sapiens (Human), UniProt P56817)
Sequence (P56817 46-501): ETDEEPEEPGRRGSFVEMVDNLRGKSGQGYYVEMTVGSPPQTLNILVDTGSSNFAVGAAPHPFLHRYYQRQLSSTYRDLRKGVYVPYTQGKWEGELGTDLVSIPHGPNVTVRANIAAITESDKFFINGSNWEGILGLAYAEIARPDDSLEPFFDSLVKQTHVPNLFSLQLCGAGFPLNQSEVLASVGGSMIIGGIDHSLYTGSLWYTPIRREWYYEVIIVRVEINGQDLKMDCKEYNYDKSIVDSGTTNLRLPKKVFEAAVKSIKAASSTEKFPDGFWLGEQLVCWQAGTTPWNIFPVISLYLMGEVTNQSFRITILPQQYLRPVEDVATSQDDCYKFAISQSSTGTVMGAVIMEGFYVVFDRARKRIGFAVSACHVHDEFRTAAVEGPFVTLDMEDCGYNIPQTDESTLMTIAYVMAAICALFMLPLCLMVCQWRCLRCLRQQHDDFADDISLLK
experiment-summary: Assay of β-secretase-inhibiting activity
Format: biochemical
condition-parameters: substrate peptide 18 nM, BACE-1 7.4 nM, pH 5.0, 30° C., 3 hours; read-out: IC50 values
pIC50: −log10 of the molar value.

Exercise: Return reported pIC50; argument: CC1(C)C[C@@](C)(c2cc(NC(=O)c3coc(Cl)n3)ccc2F)N=C(N)S1 [Compound 645]
Solution: ≥ 6.00

Exercise: Return reported pIC50; argument: C[C@@]1(c2cc(NC(=O)c3coc(C(F)(F)F)n3)ccc2F)CCSC(N)=N1 [Compound 669]
Solution: ≥ 6.00

Exercise: Return reported pIC50; argument: C[C@@]1(c2cc(NC(=O)c3ccc(OCC(N)=O)cn3)ccc2F)CCSC(N)=N1 [Compound 559]
Solution: ≥ 6.00

Exercise: Return reported pIC50; argument: Cc1nc(C(=O)Nc2cccc([C@]3(C)CCSC(N)=N3)c2)cs1 [Compound 10]
Solution: ≥ 6.00

Exercise: Return reported pIC50; argument: C[C@@]1(c2cc(NC(=O)c3cnc(N=NN)cn3)ccc2F)CCSC(N)=N1 [Compound 79]
Solution: ≥ 6.00

Exercise: Return reported pIC50; argument: Cc1cnc(C(=O)Nc2ccc(F)c([C@@]3(C)N=C(N)SCC3(F)F)c2)cn1 [Compound 662]
Solution: ≥ 6.00

Exercise: Return reported pIC50; argument: Cc1nc(C(=O)Nc2ccc(F)c([C@@]3(C)N=C(N)SCC3(C)C)c2)co1 [Compound 648]
Solution: ≥ 6.00

Exercise: Return reported pIC50; argument: Cc1nc(C(=O)Nc2ccc(F)c([C@@]3(C)N=C(N)SCC3(F)F)c2)co1 [Compound 664]
Solution: ≥ 6.00

====

Provide the reported IC50 of each item.
test-system: Recombinant human BACE-1 (Homo sapiens (Human))
experiment-summary: Assay of β-secretase-inhibiting activity
Format: biochemical
condition-parameters: substrate peptide 18 nM, BACE-1 7.4 nM, pH 5.0, 30° C., 3 hours; read-out: IC50 values

Exercise: Return reported IC50; argument: CCCCc1ccc(C(=O)Nc2ccc(F)c([C@@]3(C)N=C(N)SCC3(F)F)c2)nc1
Solution: ≤ 1000 nM

Exercise: Return reported IC50; argument: Cc1cnc(C(=O)Nc2cccc([C@]3(C)CCSC(N)=N3)c2)cn1
Solution: ≤ 1000 nM

Exercise: Return reported IC50; argument: COc1cnc(C(=O)Nc2cccc([C@]3(C)CCSC(N)=N3)c2)c(N)n1
Solution: ≤ 1000 nM

Exercise: Return reported IC50; argument: C[C@@]1(c2cc(NC(=O)c3ncc(O)cc3F)ccc2F)CCSC(N)=N1
Solution: ≤ 1000 nM

Exercise: Return reported IC50; argument: CC1(c2cc(NC(=O)c3cnc(Cl)cn3)ccc2Br)CCSC(N)=N1 (centres unmarked)
Solution: ≤ 1000 nM

Exercise: Return reported IC50; argument: CC1(C)C[C@@](C)(c2cc(NC(=O)c3ccc(O)cn3)ccc2F)N=C(N)S1
Solution: ≤ 1000 nM

Exercise: Return reported IC50; argument: C[C@@]1(c2cccc(NC(=O)c3ccc(Cl)cn3)n2)CCSC(N)=N1
Solution: ≤ 1000 nM

Exercise: Return reported IC50; argument: COCCOc1cnc(C(=O)Nc2cc(F)c(F)c([C@]3(C)CCSC(N)=N3)c2)cn1
Solution: ≤ 1000 nM

====

test-system: Recombinant human BACE-1 (Homo sapiens (Human))
experiment-summary: Assay of β-secretase-inhibiting activity
Format: biochemical
condition-parameters: Recombinant human BACE-1, Table 139; read-out: IC50
measurement-kind: IC50
# number then unit; no other words

Exercise: What reported IC50 corresponds to C[C@@]1(c2cccc(N/C(=N/O)c3ncc(Cl)cc3Cl)c2)CCSC(N)=N1 on Recombinant human BACE-1 (Homo sapiens (Human))?
Solution: 4.85 µM

====

test-system: Recombinant human BACE-1 (Homo sapiens (Human), UniProt P56817)
experiment-summary: Assay of β-secretase-inhibiting activity;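 note: enzyme cleavage of a biotinylated, Europium cryptate-labelled peptide substrate, incubated 3 h at 30 °C, then probed with Streptavidin-XL665 in KF-containing phosphate buffer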
Assay type: biochemical
condition-parameters: Recombinant human BACE-1, same assay, table; read-out: IC50
measurement-kind: IC50 (µM)
Numbers only; they are read as µM.

Exercise: Return reported IC50; argument: C[C@@]1(c2cc(NC(=O)c3cnc(NCC#N)cn3)ccc2F)CCSC(N)=N1
Solution: 0.2
